Ref: PubChem BioAssay (NCI)

tested on: HCT-15 colon; assay: NCI tumour cell line growth inhibition, 48 h

>  <Compound>
CC(=O)Oc1c(Br)ccc2cc(C(Br)Br)c(C(=O)c3ccccc3)nc12

>  <Test system>
HCT-15 colon

>  <TGI>
44.2 µM

$$$$
>  <Compound>
Cc1cc(C(O)(c2ccc(Nc3ccccc3)cc2)c2ccc(Nc3ccc(S(=O)(=O)O)cc3)cc2)ccc1N (stereo not given)

>  <Test system>
HCT-15 colon

>  <TGI>
2.95 µM

$$$$
>  <Compound>
CCC1c2cc3n(c(=O)c2COC1O)Cc1c-3nc2ccccc2c1Cl (stereo not given)

>  <Test system>
HCT-15 colon

>  <TGI>
> 100 µM

$$$$
>  <Compound>
CCCCCC#COC1CC(C)CC[C@@H]1C(C)C (stereo not given in full)

>  <Test system>
HCT-15 colon

>  <TGI>
> 100 µM

$$$$
>  <Compound>
CCC(C)(C)[C@H](NC(=O)[C@H]1CCCCN1C)C(=O)N(C)[C@H](C[C@@H](OC(C)=O)c1nc(C(=O)N[C@@H](Cc2ccccc2)C[C@H](C)C(=O)O)cs1)C(C)C

>  <Test system>
HCT-15 colon

>  <TGI>
> 16.7 µM

$$$$
>  <Compound>
Cc1ccc(C(=O)N2CCCCC2)cc1N=NN(C)C

>  <Test system>
HCT-15 colon

>  <TGI>
> 100 µM

$$$$
>  <Compound>
NC(=N\N=C/c1ccc(Cl)cc1Cl)/C(N)=N\N=C/c1ccc(Cl)cc1Cl

>  <Test system>
HCT-15 colon

>  <TGI>
> 100 µM

$$$$
>  <Compound>
O=[N+]([O-])c1ccc(CN=C2NNS(=O)(=O)c3ccccc32)cc1

>  <Test system>
HCT-15 colon

>  <TGI>
> 100 µM

$$$$
>  <Compound>
CC1(C)SCc2nc3ccccc3n21

>  <Test system>
HCT-15 colon

>  <TGI>
> 100 µM

$$$$
>  <Compound>
O=C(Nc1ccccc1)c1cccc([N+](=O)[O-])c1

>  <Test system>
HCT-15 colon

>  <TGI>
> 100 µM

$$$$
>  <Compound>
O=C1CCN2C(=N1)Sc1ccccc12

>  <Test system>
HCT-15 colon

>  <TGI>
> 100 µM

$$$$
>  <Compound>
C#CCn1c(=O)c2cccnc2n(CC#C)c1=O

>  <Test system>
HCT-15 colon

>  <TGI>
> 100 µM

$$$$
>  <Compound>
O=c1c(O)cc2c(O)oc3c(=O)c(O)c(O)c4c(O)oc1c2c43

>  <Test system>
HCT-15 colon

>  <TGI>
> 100 µM

$$$$
>  <Compound>
N#C/C(=C\c1ccc(F)cc1)n1nc2cccc(F)c2n1

>  <Test system>
HCT-15 colon

>  <TGI>
> 100 µM

$$$$
>  <Compound>
O=C(/C=C/c1ccc(O)c(O)c1)NC(COC(=O)/C=C/c1ccc(O)c(O)c1)C(=O)O (stereo not given)

>  <Test system>
HCT-15 colon

>  <TGI>
> 100 µM

$$$$
